- target-desc: ERBB4 (human)
- assay-notes: radiometric filter-binding kinase assay, Kinase HotSpot
- condition-notes: compound 0.5 µM; ATP 10 µM
Let's look at some compounds and their measured residual activity.
Please give a number only; it is taken to be in %.

Field: example entries. Status: answers known.
• O=C(Nc1cccc(Nc2cc(Nc3cccc(C(F)(F)F)c3)ncn2)c1)C1CC1 = 99.2
• Cn1nc2c3c(cccc31)C(=O)c1ccccc1-2 = 94.3
• COc1cc2ncc(-c3ccccc3)nc2cc1OC = 65.9

# query: residual activity of entry COc1cc2ncnc(N3CCN(C(=O)Nc4ccc(Oc5ccccc5)cc4)CC3)c2cc1OC
101

# query: residual activity of entry CCn1cnc2c(Nc3cccc(Cl)c3)nc(N[C@@H]3CCCC[C@@H]3N)nc21
103

# query: residual activity of entry O=C1NC(=O)/C(=C\c2ccc3nccnc3c2)S1
99.4
